Where do the numbers come from? From the supplement of paper PMC10065799.

target: Fyn (UniProt P06241); experiment: phosphorylation enrichment, bacterial display (enrichment ratio); higher = better substrate or ligand; peptides without Tyr show the background
Sequence (P06241 whole entry, looked up): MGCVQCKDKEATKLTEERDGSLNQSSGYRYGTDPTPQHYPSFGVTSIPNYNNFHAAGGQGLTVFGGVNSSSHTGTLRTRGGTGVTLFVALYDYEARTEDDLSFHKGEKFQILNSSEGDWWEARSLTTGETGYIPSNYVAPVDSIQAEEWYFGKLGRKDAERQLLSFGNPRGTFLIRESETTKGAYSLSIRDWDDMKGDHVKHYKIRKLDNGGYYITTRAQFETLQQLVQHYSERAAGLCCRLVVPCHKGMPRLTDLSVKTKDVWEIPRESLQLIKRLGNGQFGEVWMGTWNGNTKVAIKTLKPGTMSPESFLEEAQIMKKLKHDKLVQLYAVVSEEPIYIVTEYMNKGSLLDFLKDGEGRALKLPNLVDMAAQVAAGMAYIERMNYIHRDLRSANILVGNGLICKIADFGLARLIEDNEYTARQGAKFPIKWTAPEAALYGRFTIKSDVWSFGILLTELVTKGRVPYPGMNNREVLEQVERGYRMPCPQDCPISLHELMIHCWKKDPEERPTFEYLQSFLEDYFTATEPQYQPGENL
Classify by measured phosphorylation enrichment: met if it is equal to or exceeds 0.5, not met if it is smaller.

Answered cases to consult:
- residue-sequence: "VDASYYGGRGV [ANTXR2_Y381]"
  assigned-category: "met"
- residue-sequence: "KQMEQYMSFHK [HCN1_Y417_V414M]"
  assigned-category: "met"
- residue-sequence: "TAALWYIYSHT [ENG_Y612]"
  assigned-category: "met"
- residue-sequence: "KLQKYYRKNPD [EHHADH_Y683_Q685K]"
  assigned-category: "not met"

Ask | Kindly determine if phosphorylation enrichment recorded for FLAVGYHKPYI [IDS_Y225_H229Y] is above or exactly 0.5.
Reply | not met

Ask | Kindly determine if phosphorylation enrichment recorded for CDTKLYTSAPN [DNTTIP2_Y427] is above or exactly 0.5.
Reply | met

Ask | Kindly determine if phosphorylation enrichment recorded for MVIPNYSSWTE [UROC1_Y185_R188W] is above or exactly 0.5.
Reply | met

Ask | Kindly determine if phosphorylation enrichment recorded for GVRTIYTIDGS [DCLK2_Y124] is above or exactly 0.5.
Reply | met

Ask | Kindly determine if phosphorylation enrichment recorded for FASALYRQRRS [FGF11_Y162_YF] is above or exactly 0.5.
Reply | met

Ask | Kindly determine if phosphorylation enrichment recorded for IRRSSYEDSSL [HNF4A_Y144_T139I] is above or exactly 0.5.
Reply | not met

---

target: c-Src SH2; assay: SH2 binding enrichment of the phosphorylated peptide, bacterial display (enrichment ratio); higher = better substrate or ligand; peptides without Tyr show the background;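 also: peptide library displayed on the E. coli surface as eCPX fusions, selected cells deep-sequenced, score is each peptide's frequency after selection divided by its frequency in the input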
# SH2 binding enrichment values compiled below
Please reply with the value in numeric form only.

- residue-sequence: "PEIIAYQPYGK [PRKCG_Y529]"
  target-desc: "c-Src SH2"
  SH2 binding enrichment: 0.622
- residue-sequence: "IINENYDFLKV [NUP98_Y1664_G1669V_YF]"
  target-desc: "c-Src SH2"
  SH2 binding enrichment: 0.588
- residue-sequence: "DLTQDSEEWKR [ORC6_Y232_Y232S]"
  target-desc: "c-Src SH2"
  SH2 binding enrichment: 0.588

Ask | State its SH2 binding enrichment: VNFGAYINDFN [GLB1_Y488_K493N_YF]
Reply | 1.48

Ask | State its SH2 binding enrichment: IEENGYNTYAS [FGF10_Y161]
Reply | 1.12

Ask | State its SH2 binding enrichment: KRISCYEARFQ [PFKFB3_Y194_S197R_YF]
Reply | 0.64

Ask | State its SH2 binding enrichment: LRLFSYSTTIR [CYP7B1_Y365_S363F]
Reply | 0.494

Ask | State its SH2 binding enrichment: QGFDTYFGFLL [ARSB_Y165_R160Q_YF]
Reply | 0.345

Ask | State its SH2 binding enrichment: SWSTSYSGYRC [NKAPL_Y91_Y96C]
Reply | 0.63

Ask | State its SH2 binding enrichment: NHYKRYNLCAE [PTEN_Y68_I67R]
Reply | 0.662

Ask | State its SH2 binding enrichment: YQLPYYNMVPS [BMPR1A_Y458]
Reply | 5.08

Ask | State its SH2 binding enrichment: KMGNIYRTEYG [MRPL3_Y265]
Reply | 0.529

Ask | State its SH2 binding enrichment: LKVDVYRRSHK [FUT3_Y222_G223R]
Reply | 0.677

Ask | State its SH2 binding enrichment: EACPSYSHVVL [CHST6_Y168_R166P]
Reply | 1.52

Ask | State its SH2 binding enrichment: PVDNLYAEPAV [PRPS1_Y146]
Reply | 0.671

Ask | State its SH2 binding enrichment: DLNATYCTIQG [U2SURP_Y634_R635C]
Reply | 1.2

Ask | State its SH2 binding enrichment: RKQQLYTAMEE [CCDC39_Y593]
Reply | 3.25
